# Target System: T1, P1A-bH
# T1 chain: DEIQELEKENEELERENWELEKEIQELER
# Experimental Protocol: two-hybrid library CCNG1;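 note: natural log of median RNA to DNA barcode read ratio; higher means stronger binding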
Experimental Readout: interaction score

| Binder | Experimental Readout | Recorded Result |
| --- | --- | --- |
| DKNQELKKENEELERKIWELKKKIQELKR [P10A-bH] | interaction score | 1.06 |

a. DEIAQLKQEIAELKQEIAELKWKNAQLEQ [4H591-bA]
b. DKIAQLEQEIAELKQENAELKWKNAQLEQ [4H2143-bA]
c. DENQELEKEIEELEREIWELEKKNQELKR [P11A-bH]
d. DKNQELKKKIEELKRKIWELKKENQELER [P12A-bH]
Put the items in sequence by interaction score, from largest down. Labels, ranked as asked.
c, d, a, b
(c: 1.5, d: 0.256, a: 0.0694, b: -0.594)
